Listed below: Visual Injury (%) SINAR values for each entry.
# Test system: Brassica sinapis (Mustard, wild)
# assay.procedure: Postemergence herbicidal activity in cereal crops (Example 14)
# Format: in vivo
# test.conditions: wheat cropping systems, postemergence spray, 35 g ae/ha, 21 DAA
result.type: Visual Injury (%) SINAR

compound: COc1c(Cl)ccc(-c2cc(N)c(Cl)c(C(=O)OCc3ccccc3)n2)c1F
system: Brassica sinapis (Mustard, wild)
result.type: Visual Injury (%) SINAR
measurement.unit: %
numeric.readout: 95
--
compound: COC(=O)c1nc(-c2ccc(C3CC3)cc2)c(F)c(N)c1Cl
system: Brassica sinapis (Mustard, wild)
result.type: Visual Injury (%) SINAR
measurement.unit: %
numeric.readout: 70
--
compound: Nc1c(F)c(-c2ccc(C3CC3)cc2)nc(C(=O)OCc2ccccc2)c1Cl
system: Brassica sinapis (Mustard, wild)
result.type: Visual Injury (%) SINAR
measurement.unit: %
numeric.readout: 93
--
compound: COC(=O)c1nc(-c2ccc(Cl)c(OC)c2F)cc(N)c1Cl [Compound G, reference compound]
system: Brassica sinapis (Mustard, wild)
result.type: Visual Injury (%) SINAR
measurement.unit: %
numeric.readout: 80
